Target: MAGE-A11:PCF11 interaction (GST-MAGE-A11 and FAM-PCF11_4) (Homo sapiens, UniProt P43364)
Construct: GST-MAGE-A11 MHD (human MAGE-A11 MHD amino acid 218-429); made in house; host or cells: E. coli BL21(DE3)
Sequence (P43364 218-429): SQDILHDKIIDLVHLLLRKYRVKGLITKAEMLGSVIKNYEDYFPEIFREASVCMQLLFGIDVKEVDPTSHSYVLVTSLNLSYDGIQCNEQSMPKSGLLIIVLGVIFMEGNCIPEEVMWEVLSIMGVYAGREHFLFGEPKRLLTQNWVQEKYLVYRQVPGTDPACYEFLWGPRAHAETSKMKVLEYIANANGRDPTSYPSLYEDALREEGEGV
Experiment: TR-FRET primary / single point screen at 15 µM
Format: binding
Conditions: single point TR-FRET screening of 797 quinoline compounds against MAGE-A11:PCF11
propertyLabel: percent inhibition (TR-FRET)
Give the value as a plain number.

Value lookup for percent inhibition (TR-FRET); key = `COc1cc2ncc(S(=O)(=O)c3ccc(Cl)cc3)c(N3CCN(C)CC3)c2cc1OC` 4.674

Value lookup for percent inhibition (TR-FRET); key = `CCCN(CCCNc1c2ccc(Cl)cc2nc2ccc(OC)cc12)Cc1cccc(OC)c1` -244.583

Value lookup for percent inhibition (TR-FRET); key = `CCCN(CCCNc1c2ccc(Cl)cc2nc2ccc(OC)cc12)Cc1cn(C(C)=O)c2ccccc12` -192.351

Value lookup for percent inhibition (TR-FRET); key = `COc1ccc2nc3cc(Cl)ccc3c(NCCCNCc3nccn3C)c2c1` -279.905

====

target: MAGE-A11:PCF11 interaction (GST-MAGE-A11 and FAM-PCF11_4) (Homo sapiens, UniProt P43364); construct: GST-MAGE-A11 MHD (human MAGE-A11 MHD amino acid 218-429); made in house; host or cells: E. coli BL21(DE3); experiment: TR-FRET primary / single point screen at 15 µM; format: binding; conditions: single point TR-FRET screening of 797 quinoline compounds against MAGE-A11:PCF11
Assign percent inhibition (TR-FRET) to each entry below.
Give the value as a plain number.

Value lookup for percent inhibition (TR-FRET); key = `COc1ccccc1CN1CCC(Nc2ccnc3cc(Cl)ccc23)CC1` 8.596

Value lookup for percent inhibition (TR-FRET); key = `COC(=O)CCCCCN(CCCCNc1ccnc2cc(Cl)ccc12)Cc1ccccc1` 23.5757

Value lookup for percent inhibition (TR-FRET); key = `CCCN(CCCNc1c2ccc(Cl)cc2nc2ccc(OC)cc12)Cc1scnc1C` -127.026

Value lookup for percent inhibition (TR-FRET); key = `CCCN(CCCNc1c2ccc(Cl)cc2nc2ccc(OC)cc12)Cc1ccco1` -202.643

Value lookup for percent inhibition (TR-FRET); key = `CCCCCN(CCC)CCCNc1c2ccc(Cl)cc2nc2ccc(OC)cc12` -210.345

====

Biological target: MAGE-A11:PCF11 interaction (GST-MAGE-A11 and FAM-PCF11_4) (Homo sapiens, UniProt P43364)
Construct: GST-MAGE-A11 MHD (human MAGE-A11 MHD amino acid 218-429); made in house; host or cells: E. coli BL21(DE3)
Assay: TR-FRET primary / single point screen at 15 µM
Format: binding
Conditions: single point TR-FRET screening of 797 quinoline compounds against MAGE-A11:PCF11
Method: The TR-FRET assay buffer with a formula of 50 mM Tris pH 7.5, 20 mM MgCl2, 0.1 mg/ml BSA and 1 mM DTT was freshly prepared before each experiment. […] After incubation, the fluorescent emission signals at 520 nm and 490 nm channels of individual wells were measured with a PHERAstar FS plate reader (BMG Labtech; Durham, NC, USA) by using a 340 nm excitation filter, 100 µs delay time, and 200 µs integration time. […] The TR-FRET signals for individual wells were measured with a PHERAstar FS plate reader. […]
Assign Y to entries whose percent inhibition (TR-FRET) meets or exceeds 20; assign N to the rest.

Decide: percent inhibition (TR-FRET) of `COc1ccc(O)c(CN(CCCCNc2ccnc3cc(Cl)ccc23)Cc2ccccc2)c1` >= 20? N

Decide: percent inhibition (TR-FRET) of `COc1ccccc1N1CCN(c2c(S(=O)(=O)c3ccc(C)cc3)cnc3ccc(Cl)cc23)CC1` >= 20? N

Decide: percent inhibition (TR-FRET) of `CCCN(CCCNc1c2ccc(Cl)cc2nc2ccc(OC)cc12)Cc1ccc([N+](=O)[O-])o1` >= 20? N

Decide: percent inhibition (TR-FRET) of `COc1ccc2nc3cc(Cl)ccc3c(NCCCNCc3cccc(F)c3)c2c1` >= 20? N

Decide: percent inhibition (TR-FRET) of `FC(F)(F)c1cc(CN(CCCCNc2ccnc3cc(Cl)ccc23)Cc2ccccc2)ccc1Cl` >= 20? Y

Decide: percent inhibition (TR-FRET) of `O=[N+]([O-])c1ccc(CN(CCCCNc2ccnc3cc(Cl)ccc23)Cc2ccccc2)cc1` >= 20? N

Decide: percent inhibition (TR-FRET) of `Cc1cccc(CN(CCCCNc2ccnc3cc(Cl)ccc23)Cc2ccccc2)c1` >= 20? Y

Decide: percent inhibition (TR-FRET) of `CN(C)c1cc(NC(=O)CNC(C)(C)CC(C)(C)C)c2ccccc2n1` >= 20? N
